biological target: farnesyl transferase (Homo sapiens, UniProt P49354+P49356); test: Farnesyl transferase inhibition, [3H]-farnesylation of biotinylated K-ras C-terminal peptide (SPA assay); format: biochemical; details: K-Ras substrate; 60 min at 37° C.; mean of two IC50 values; read-out: In vitro inhibitory activity (K-Ras) IC50
pIC50: −log10 of the molar value.
Readout label: pIC50

Check out these entries, answers already filled in.
>>> number("COc1ccccc1CC(=O)N1C[C@@H]2[C@]3(c4ccc(C)c(C)c4)CC[C@@H](c4ccccc43)[C@]2(C(=O)O)C1 (racemic) [Example 12]")
7.35
>>> number("C=C(C(=O)N1C[C@H]2[C@@]3(c4ccc(C)cc4)CC[C@H](c4ccccc43)[C@@]2(C(=O)NCc2ccc[n+]([O-])c2)C1)c1ccccc1OC (relative stereo) [Example 26]")
6.84
>>> number("C=C(C(=O)N1C[C@@H]2[C@]3(c4ccc(OC)c(C)c4)CC[C@@H](c4ccccc43)[C@]2(C(=O)O)C1)c1ccccc1OC (racemic) [Example 54]")
7.11
>>> number("C=C(C(=O)N1C[C@H]2[C@@]3(c4ccc(OC)cc4)CC[C@H](c4ccccc43)[C@@]2(C(=O)NNc2ccccc2)C1)c1ccccc1OC (relative stereo) [Example 77]")
6.69
>>> number("C=C(C(=O)N1C[C@@H]2[C@]3(c4ccc(Cl)c(Cl)c4)CC[C@@H](c4ccccc43)[C@]2(C(=O)O)C1)c1ccccc1OC (racemic) [Example 51]")
7.17

I. C=C(C(=O)N1C[C@H]2[C@@]3(c4ccc(OC)cc4)CC[C@H](c4ccccc43)[C@@]2(C(=O)NCc2ccsc2)C1)c1ccccc1OC (relative stereo) [Example 80]
II. C=C(C(=O)N1C[C@@H]2[C@]3(c4ccc(C)c(C)c4)CC[C@@H](c4ccccc43)[C@]2(C(=O)OC)C1)c1ccccc1OC (racemic) [Example 71]
Exercise: compare I and II ; which one has the greater pIC50? Pick one and reply with its label.
I
(I: 7.17, II: 6.47)
